- system: Hsp70 (recombinant) (UniProt P0DMV8)
- procedureText: MST; sTNFR1 or Hsp70 labeled with Alexa Fluor 633 or 488 (200 nM), 20 min in the dark at room temperature with 16 concentrations of each compound; Monolith NT 115, IR laser power 10%; apparent Kd; triplicate

- binder: "Tag7 protein (PGLYRP1) (natural protein) QETEDPACCSPIVPRNEWKALASECAQHLSLPLRYVVVSHTAGSSCNTPASCQQQARNVQHYHMKTLGWCDVGYNFLIGEDGLVYEGRGWNFTGAHSGHLWNPMSIGISFMGNYMDRVPTPQAIRAAQGLLACGVAQGALRSNYVLKGHRDVQRTLSPGNQLYHLIQNWPHYRSP"
  Kd / nM: 1.73
- binder: "HRDVQRT [peptide 17.1A]"
  Kd / nM: 222
- binder: "RSNYVLKG [peptide 17.1B]"
  Kd / nM: 3.15

This collection of values is drawn from paper PMC10379010.
